# radioactive counts recorded in twenty minutes per entry
Biological target: HIV-1LAI envelope gp120 (Human immunodeficiency virus type 1 group M subtype B)
Format: binding
Settings: CXCR4 18-mer scan; empty control 412
RESULT TYPE: radioactive counts recorded in twenty minutes (counts)

CHAIN SEQUENCE	SYSTEM NAME	UNIT DESCRIPTOR	VAL
DRYLAIVHATNSQRPRKL	HIV-1LAI envelope gp120 (Human immunodeficiency virus type 1 group M subtype B)	counts	580
FHCCLNPILYAFLGAKFK [CXCR4 segment 293-310]	HIV-1LAI envelope gp120 (Human immunodeficiency virus type 1 group M subtype B)	counts	535
QKRKALKTTVILILAFFA [CXCR4 segment 233-250]	HIV-1LAI envelope gp120 (Human immunodeficiency virus type 1 group M subtype B)	counts	695
KRGGHSSVSTESESSSFH [CXCR4 segment 333-350]	HIV-1LAI envelope gp120 (Human immunodeficiency virus type 1 group M subtype B)	counts	579
SITEALAFFHCCLNPILY [CXCR4 segment 285-302]	HIV-1LAI envelope gp120 (Human immunodeficiency virus type 1 group M subtype B)	counts	600
GCEFENTVHKWISITEAL [CXCR4 segment 273-290]	HIV-1LAI envelope gp120 (Human immunodeficiency virus type 1 group M subtype B)	counts	676
YDSMKEPCFREENANFNK [CXCR4 segment 21-38]	HIV-1LAI envelope gp120 (Human immunodeficiency virus type 1 group M subtype B)	counts	465
KLLAEKVVYVGVWIPALL	HIV-1LAI envelope gp120 (Human immunodeficiency virus type 1 group M subtype B)	counts	501
ICDRFYPNDLWVVVFQFQ [CXCR4 segment 185-202]	HIV-1LAI envelope gp120 (Human immunodeficiency virus type 1 group M subtype B)	counts	718
IVGNGLVILVMGYQKKLR [CXCR4 segment 53-70]	HIV-1LAI envelope gp120 (Human immunodeficiency virus type 1 group M subtype B)	counts	650
YVGVWIPALLLTIPDFIF	HIV-1LAI envelope gp120 (Human immunodeficiency virus type 1 group M subtype B)	counts	536
SVADLLFVITLPFWAVDA [CXCR4 segment 81-98]	HIV-1LAI envelope gp120 (Human immunodeficiency virus type 1 group M subtype B)	counts	665

====

# Relative % of Control per entry
Molecular target: HIV-1LAI envelope gp120 (Human immunodeficiency virus type 1 group M subtype B)
Format: binding
Settings: CCR5 (1-18) alanine variants; mean of two syntheses and binding experiments ± average deviation; wild-type = 100%

CHAIN SEQUENCE	Relative % of Control
MDYQVSSPIYDANYYTSE	14 ± 1%
MDYQVSSPIADINYYTSE [CCR5 (1-18) variant Y10A]	19 ± 6%
MAYQVSSPIYDINYYTSE [CCR5 (1-18) variant D2A]	125 ± 8%
MDYQVSSPAYDINYYTSE [CCR5 (1-18) variant printed 19A]	24 ± 7%
MDYAVSSPIYDINYYTSE [CCR5 (1-18) variant Q4A]	104 ± 7%
MDYQVSSPIYDINYATSE [CCR5 (1-18) variant Y15A]	21 ± 5%

====

Target: HIV-1LAI envelope gp120 (Human immunodeficiency virus type 1 group M subtype B, UniProt P03377)
Assay type: binding
Conditions: CCR5 18-mer scan; radiolabeled HIV-1LAI gp120; background subtracted
# Counts per 20′ Average-background per entry

CHAIN SEQUENCE	Counts per 20′ Average-background / counts per 20′
GVVTSVITWVVAVFASLP	69
ERASSVYTRSTGEQEISV [CCR5 segment 333-]	84
SIFQQEAPERASSVYTRS [CCR5 segment 325-]	100
FLFWAPYNIVLLLNTFQE [CCR5 segment 245-]	616
CQLLTGLYFIGFFSGIFF	489
FVGNMLVILILINCKRLK [CCR5 segment 45-62]	62
ILKTLLRCRNEKKRHRAV	19

====

Molecular target: HIV-1LAI envelope gp120 (Human immunodeficiency virus type 1 group M subtype B, UniProt P03377)
Format: binding
Conditions: STRL33 18-mer scan; background subtracted; first of two count columns
# label = t if radioactive counts recorded in twenty minutes >= 600 counts else f

CHAIN SEQUENCE	LABEL VALUE
LKFRKNFWKLVKDIGCLP [STRL33 segment 293-310]	t
AFLQFSKVFLPCMYLVVF [STRL33 segment 25-42]	t
LPLADLVFVCTLPFWAYA [STRL33 segment 73-90]	f
IFLVMAVFLLTQMPFNLM [STRL33 segment 233-250]	f
TLGFFLPLLTMIVCYSVI	t
LMKFIRSTHWEYYAMTSF [STRL33 segment 249-266]	t
SKTFSASHNVEATSMFQL [STRL33 segment 325-342]	t
KATKAYNQQAKRMTWGKV	t
TIMVTEAIAYLRACLNPV [STRL33 segment 269-286]	f
VIIKTLLHAGGFQKERSL	t
TCITVDRFIVVVKATKAY	f
MLILTCITVDRFIVVVKA	f
IVVVKATKAYNQQAKRMT	f
NSIYLVISIFYHKLQSLT [STRL33 segment 49-66]	t
QAKRMTWGKVTSLLIWVI	f
DYGFSSFNDSSQEEHQAF [STRL33 segment 9-26]	t
DIGCLPYLGVSHQWKSSE	f
AGGFQKHRSLKIIFLVMA	f
LLTQMPFNLMKFIRSTHW	t
MAEHDYHEDYGFSSFNDS [STRL33 segment 1-18]	t
AYLRACLNPVLYAFVSLK [STRL33 segment 277-294]	t
VFVCGLVGNSLVLVISIF [STRL33 segment 41-58]	f
YAGIHEWVFGQVMCKSLL [STRL33 segment 89-106]	t
QKHRSLKIIFLVMAVFLL [STRL33 segment 225-242]	t

====

Target: HIV-1LAI envelope gp120 (Human immunodeficiency virus type 1 group M subtype B, UniProt P03377)
Format: binding
Settings: human CD4 21-mer scan; empty control 2075
# number of radioactive decays (counts) counted per entry
RESULT TYPE: number of radioactive decays (counts) counted

CHAIN SEQUENCE	UNIT DESCRIPTOR	VAL
LTCEVWGPTSPKLMLSLKLEN	counts	2412
RMSQIKRLLSEKKTCQCPHRF	counts	2020
VLPTWSTPVQPMALIVLGGVA	counts	2197
KLTGSGELWWQAERASSSKSW [human CD4 231-251]	counts	1878
VLGGVAGLLLFIGLGIFFCVR [human CD4 401-421]	counts	3738
AFTVEKLTGSGELWWQAERAS [human CD4 226-246]	counts	3992
GQVLLESNIKVLPTWSTPVQP [human CD4 376-396]	counts	2089
QAERASSSKSWITFDLINKEV [human CD4 241-261]	counts	2588
PFRELLLVLQLALLPAATQGK [human CD4, printed 16-26]	counts	4356
KIDIVVLAFQKASSIVYKKEG	counts	3681
LKNKEVSVKPVTQDPKLQMGK [human CD4 256-276]	counts	2288
WGPTSPKLMLSLKLENKEAKV [human CD4 331-351]	counts	2414
KKLPLHLTLPQALPQYAGSGN [human CD4 276-296]	counts	1922
HLTLPQALPQYAGSGNLTLAL [human CD4 281-301]	counts	2394
STPVQPMALIVLGGVAGLLLF [human CD4 391-411]	counts	2527
PMALIVLGGVAGLLLFIGLGI	counts	3067
NKEAKVSKREKAVWVLNPEAG	counts	1735
EKKTCQCPHRFQKTCSPI	counts	2006
SLKLENKEAKVSKREKAVWVL [human CD4 341-361]	counts	1663
LNPEAGMWQCLLSDSGQVLLE [human CD4 361-381]	counts	6316
GMWQCLLSDSGQVLLESNIKV	counts	4185
VSKREKAVWVLNPEAGMWQCL [human CD4 351-371]	counts	2034
VLAFQKASSIVYKKEGEQVEF	counts	3566
EVNLVVMRATQLQKNLTCEVW [human CD4 311-331]	counts	2183
GKLHQEVNLVVMRATQLQKNL [human CD4 306-326]	counts	1776
QLQKNLTCEVWGPTSPKLMLS [human CD4 321-341]	counts	1856
AGLLLFIGLGIFFCVRCRHRR	counts	2099
VTQDPKLQMGKKLPLHLTLPQ [human CD4 266-286]	counts	2075
RCRHRRRQAERMSQIKRLLSE [human CD4 421-441]	counts	2075
KRLLSEKKTCQCPERFQKTCS [human CD4 436-456]	counts	1674
IFFCVRCRHRRRQAERMSQIK	counts	2085
QALPQYAGSGNLTLALEAKTG [human CD4 286-306]	counts	2364
GEQVEFSFPLAFTVEKLTGSG [human CD4 216-236]	counts	18549
